Reference source for all entries: PubChem BioAssay AID1159580

# ASSAY_OVERVIEW: chemical genetic growth profiling, strain panel (AID 1159580);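 further: tested at 20 µM; growth read once vehicle control cultures reached saturation at 30 °C; 1 = growth at the plate median or of vehicle wells; lower values mean less growth of the strain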
# RECORDED_CONDITIONS: S. cerevisiae deletion strains, growth OD, locus YKL193C, strain SDS22, active compounds read low
Out of some 5,500 compounds screened, about 2,000 (36%) were called active. About 18% were inconclusive and are not listed. Some of the results follow.
READOUT_LABEL: normalized growth
Output: the number by itself.

O=C(Nc1cc(Cl)cc(Cl)c1)c1cc(Br)ccc1O; 0.936
CCOC(=O)C(O)(c1ccc(NC(=O)c2ccc(Cl)c(Cl)c2)cc1)C(F)(F)F (stereo unspecified); 1

Exam item: Value lookup for normalized growth; key = C=CCC1C(=O)N(S(=O)(=O)c2ccc(Cl)cc2)N=C1CCC (stereo unspecified)
Marked response: 0.995

Exam item: How about this compound: "COC(=O)c1cc(I)c(OC(C)=O)c(I)c1"
Marked response: 0.942

###

# ASSAY_OVERVIEW: chemical genetic growth profiling, strain panel (AID 1159580);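 further: tested at 20 µM; growth read once vehicle control cultures reached saturation at 30 °C; 1 = growth at the plate median or of vehicle wells; lower values mean less growth of the strain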
# RECORDED_CONDITIONS: S. cerevisiae deletion strains, growth OD, locus YHR079C, strain IRE1, active compounds read low
Out of some 5,500 compounds screened, about 2,000 (36%) were called active. Another 18% or so got no clear call; they are omitted. Some of the results follow.
For each record, check the reported normalized growth: if it is below 1 write True, else write False.

Cn1ncc(-c2nc(-c3ccc(Cl)cc3)cs2)c1N; True

Exam item: is_below(normalized growth, 1) for "Cc1cc(Oc2c([N+](=O)[O-])cc(C(F)(F)F)cc2[N+](=O)[O-])c2c(Cl)ccc(C)c2n1" ?
Marked response: True

Exam item: Next up: "CCCCN(CC)c1c([N+](=O)[O-])cc(C(F)(F)F)cc1[N+](=O)[O-]"
Marked response: False

Exam item: How about this molecule: "C=C[C@H]1CN2CC[C@H]1C[C@H]2[C@H](O)c1ccnc2ccccc12"
Marked response: True

Exam item: Moving on to the next molecule: CC1(C)CC23C(=O)CCC(O)C2(C)CCC13 (configuration not stated)
Marked response: False

Exam item: Same again, this time with "CCCc1ncc(C[n+]2ccccc2C)c(N)n1"
Marked response: False

###

# ASSAY_OVERVIEW: chemical genetic growth profiling, strain panel (AID 1159580);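 further: tested at 20 µM; growth read once vehicle control cultures reached saturation at 30 °C; 1 = growth at the plate median or of vehicle wells; lower values mean less growth of the strain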
# RECORDED_CONDITIONS: S. cerevisiae deletion strains, growth OD, locus YDR069C, strain doa4, active compounds read low
Among all 5,500 compounds or so, about 2,000 (36%) were called active. About 18% were inconclusive and are not listed. Some of the results follow.
READOUT_LABEL: normalized growth
Could you keep your reply to the number by itself?

Below, each entry is followed by its recorded normalized growth result.
NS(=O)(=O)c1cc2c(cc1Cl)NCNS2(=O)=O; 1.03
CC(C)[C@@H]1CC[C@@H](C)CC1=O; 1.01

Exam item: # query: normalized growth of entry CC(=CC1CCC(C)C2C1=C(C)CC2O)C(=O)O (stereo not drawn)
Marked response: 1

Exam item: Now this one: O=C(c1ccccc1)c1ccc2n1CCC2C(=O)O (stereo not drawn)
Marked response: 1.01

Exam item: Field entry: CC(=O)O[C@@H]1C2CC[C@@H]3C1(C[C@@H](O)[C@@]1(O)[C@@H](C[C@H](O)C1(C)C)[C@]3(C)O)C[C@@]2(C)O (stereo partly drawn)
Marked response: 0.999

Exam item: Next up: COC(=O)C[C@H]1C(C)(C)[C@@H](OC(C)=O)[C@@H]2CC3=C4CC(=O)O[C@@H](c5ccoc5)[C@]4(C)CCC3[C@@]1(C)C2=O (stereo partly drawn)
Marked response: 0.982

Exam item: Again, but for "CC(=O)NS(=O)(=O)c1ccc(N)cc1"
Marked response: 1.03

Exam item: Try COc1cc2c(cc1OC)C(C)NCC2 (stereo not drawn) next.
Marked response: 0.921
